# test description: Pharmacokinetics of intravenous bolus citrulline in patients with sickle cell disease
# Format: in vivo, human
# test conditions: human, plasma, iv, 20 mg/kg, individual patients; 20 mg/kg intravenous bolus over 5 minutes
endpoint label: clearance (mL/min/kg)

1) NC(=O)NCCCC(N)C(=O)O (stereo not shown) : 11.7

###

# test description: Pharmacokinetics of intravenous bolus citrulline in patients with sickle cell disease
# Format: in vivo, human
# test conditions: human, plasma, iv, 20 mg/kg, Average of patients 1-4; 20 mg/kg intravenous bolus
endpoint label: clearance (mL/min/kg)

1. NC(=O)NCCCC(N)C(=O)O (stereo not shown) : 8.67

###

# test description: Pharmacokinetics of intravenous bolus citrulline in patients with sickle cell disease
# Format: in vivo, human
# test conditions: human, plasma; 4 hours after the infusion; 20 mg/kg intravenous bolus; read-out: trough level (plasma citrulline)
endpoint label: concentration at 4 h

1. NC(=O)NCCCC(N)C(=O)O (stereo not shown) : 20 to 40 µM
